What pIC50 was measured for each of the following?
Test system: HeLa
protocol: Cytotoxicity against human HeLa cells assessed as reduction in cell growth incubated for 72 hrs by MTT assay
Assay type: functional, cell-based
pIC50 field: float, defined as -log10 of concentration (mol/L).

Form field pIC50 for item Cc1ccnc(/C(N)=N/NC(=S)N2CCCC2)c1 on HeLa: 5.72

Form field pIC50 for item N/C(=N\NC(=S)N1CCCC1)c1ccc(F)cn1 on HeLa: 5.74

Form field pIC50 for item Cc1ccnc(/C(N)=N/NC(=S)N2CCOCC2)c1 on HeLa: 4.41

Form field pIC50 for item Cc1cccc(/C(N)=N/NC(=S)N2CCCCCC2)n1 on HeLa: 6.00

Form field pIC50 for item Cc1cccc(/C(N)=N/NC(=S)N2CCCC2)n1 on HeLa: 5.57

Form field pIC50 for item N/C(=N\NC(=S)N1CCSCC1)c1ccccn1 on HeLa: 5.11

Form field pIC50 for item N/C(=N\NC(=S)N1CCCCCC1)c1ccccn1 on HeLa: 5.22

====

Tested on: A-375
protocol: Cytotoxicity against human A375 cells assessed as reduction in cell growth incubated for 72 hrs by MTT assay
Type: functional, cell-based
run.conditions: A-375, 72 h
What pIC50 was measured for each of the following?
pIC50 field: float, defined as -log10 of concentration (mol/L).

Per the records, this compound ( N/C(=N\NC(=S)N1CCSCC1)c1ccc(F)cn1 ) has pIC50 equal to 6.05

Per the records, this compound ( Cc1ccnc(/C(N)=N/NC(=S)N2CCSCC2)c1 ) has pIC50 equal to 5.92

Per the records, this compound ( N/C(=N\NC(=S)N1CCCC1)c1ccccn1 ) has pIC50 equal to 6.22

Per the records, this compound ( N/C(=N\NC(=S)N1CCN(c2ccccn2)CC1)c1ccccn1 ) has pIC50 equal to 6.15

Per the records, this compound ( Cc1ccnc(/C(N)=N/NC(=S)N2CCCCCC2)c1 ) has pIC50 equal to 6.10

Per the records, this compound ( Cc1cccc(/C(N)=N/NC(=S)N2CCCCCC2)n1 ) has pIC50 equal to 5.74

Per the records, this compound ( N/C(=N\NC(=S)N1CCSCC1)c1ccccn1 ) has pIC50 equal to 6.12

Per the records, this compound ( N/C(=N\NC(=S)N1CCOCC1)c1ccc(F)cn1 ) has pIC50 equal to 5.82

Per the records, this compound ( Cc1ccnc(/C(N)=N/NC(=S)N2CCCCC2)c1 ) has pIC50 equal to 5.72

Per the records, this compound ( N/C(=N\NC(=S)N1CCCCCC1)c1ccccn1 ) has pIC50 equal to 6.13

Per the records, this compound ( Cc1ccnc(/C(N)=N/NC(=S)N2CCN(c3ccccn3)CC2)c1 ) has pIC50 equal to 6.11

Per the records, this compound ( N/C(=N\NC(=S)N1CCCC1)c1ccc(F)cn1 ) has pIC50 equal to 6.07

Per the records, this compound ( Cc1cccc(/C(N)=N/NC(=S)N2CCSCC2)n1 ) has pIC50 equal to 5.85

Per the records, this compound ( Cc1cccc(/C(N)=N/NC(=S)N2CCCC2)n1 ) has pIC50 equal to 5.54

Per the records, this compound ( Cc1cccc(/C(N)=N/NC(=S)N2CCCCC2)n1 ) has pIC50 equal to 6.00

Per the records, this compound ( N/C(=N\NC(=S)N1CCN(c2ccccn2)CC1)c1ccc(F)cn1 ) has pIC50 equal to 5.85

Per the records, this compound ( N/C(=N\NC(=S)N1CCCCC1)c1ccccn1 ) has pIC50 equal to 6.17

Per the records, this compound ( Cc1ccnc(/C(N)=N/NC(=S)N2CCOCC2)c1 ) has pIC50 equal to 5.80

Per the records, this compound ( Cc1cccc(/C(N)=N/NC(=S)N2CCOCC2)n1 ) has pIC50 equal to 4.85

Per the records, this compound ( N/C(=N\NC(=S)N1CCOCC1)c1ccccn1 ) has pIC50 equal to 6.17

Per the records, this compound ( Cc1cccc(/C(N)=N/NC(=S)N2CCN(c3ccccn3)CC2)n1 ) has pIC50 equal to 6.07

Per the records, this compound ( Cc1ccnc(/C(N)=N/NC(=S)N2CCCC2)c1 ) has pIC50 equal to 6.14

Per the records, this compound ( N/C(=N\NC(=S)N1CCCCCC1)c1ccc(F)cn1 ) has pIC50 equal to 6.02

====

Test system: HeLa
protocol: Cytotoxicity against human HeLa cells assessed as reduction in cell growth incubated for 72 hrs by MTT assay
Type: functional, cell-based
property.label: pIC50
pIC50 field: float, defined as -log10 of concentration (mol/L).

Per the records, this molecule ( N/C(=N\NC(=S)N1CCCC1)c1ccccn1 ) has pIC50 equal to 5.21

Per the records, this molecule ( Cc1ccnc(/C(N)=N/NC(=S)N2CCN(c3ccccn3)CC2)c1 ) has pIC50 equal to 4.98

Per the records, this molecule ( N/C(=N\NC(=S)N1CCCCC1)c1ccccn1 ) has pIC50 equal to 5.42

Per the records, this molecule ( N/C(=N\NC(=S)N1CCSCC1)c1ccc(F)cn1 ) has pIC50 equal to 5.77

Per the records, this molecule ( Cc1ccnc(/C(N)=N/NC(=S)N2CCCCC2)c1 ) has pIC50 equal to 5.11

Per the records, this molecule ( N/C(=N\NC(=S)N1CCOCC1)c1ccccn1 ) has pIC50 equal to 5.14

Per the records, this molecule ( Cc1ccnc(/C(N)=N/NC(=S)N2CCSCC2)c1 ) has pIC50 equal to 4.81

Per the records, this molecule ( N/C(=N\NC(=S)N1CCOCC1)c1ccc(F)cn1 ) has pIC50 equal to 5.77

Per the records, this molecule ( Cc1cccc(/C(N)=N/NC(=S)N2CCOCC2)n1 ) has pIC50 equal to 5.66

Per the records, this molecule ( Cc1ccnc(/C(N)=N/NC(=S)N2CCCCCC2)c1 ) has pIC50 equal to 5.15

Per the records, this molecule ( Cc1cccc(/C(N)=N/NC(=S)N2CCSCC2)n1 ) has pIC50 equal to 5.74

Per the records, this molecule ( N/C(=N\NC(=S)N1CCN(c2ccccn2)CC1)c1ccc(F)cn1 ) has pIC50 equal to 5.70

Per the records, this molecule ( N/C(=N\NC(=S)N1CCN(c2ccccn2)CC1)c1ccccn1 ) has pIC50 equal to 5.07

Per the records, this molecule ( Cc1cccc(/C(N)=N/NC(=S)N2CCN(c3ccccn3)CC2)n1 ) has pIC50 equal to 6.05

Per the records, this molecule ( N/C(=N\NC(=S)N1CCCCCC1)c1ccc(F)cn1 ) has pIC50 equal to 6.05

Per the records, this molecule ( Cc1cccc(/C(N)=N/NC(=S)N2CCCCC2)n1 ) has pIC50 equal to 5.70

====

Test system: A-431
protocol: Cytotoxicity against human A431 cells assessed as reduction in cell growth at 10 uM incubated for 72 hrs by MTT assay relative to control
Assay type: functional
run.conditions: A-431, 72 h, read-out: GI
property.label: inhibition of growth at 10 µM (%)
Your answer is read as %, so omit the unit and give the number.

Per the records, this compound ( Cc1cccc(/C(N)=N/NC(=S)N2CCCC2)n1 ) has inhibition of growth at 10 µM equal to 67.6

Per the records, this compound ( Cc1cccc(/C(N)=N/NC(=S)N2CCSCC2)n1 ) has inhibition of growth at 10 µM equal to 53.2

Per the records, this compound ( N/C(=N\NC(=S)N1CCCC1)c1ccc(F)cn1 ) has inhibition of growth at 10 µM equal to 78.7

Per the records, this compound ( N/C(=N\NC(=S)N1CCSCC1)c1ccccn1 ) has inhibition of growth at 10 µM equal to 61.4

Per the records, this compound ( Cc1ccnc(/C(N)=N/NC(=S)N2CCN(c3ccccn3)CC2)c1 ) has inhibition of growth at 10 µM equal to 44

Per the records, this compound ( N/C(=N\NC(=S)N1CCN(c2ccccn2)CC1)c1ccc(F)cn1 ) has inhibition of growth at 10 µM equal to 47.4

Per the records, this compound ( Cc1ccnc(/C(N)=N/NC(=S)N2CCCCCC2)c1 ) has inhibition of growth at 10 µM equal to 55.5

Per the records, this compound ( N/C(=N\NC(=S)N1CCCCCC1)c1ccccn1 ) has inhibition of growth at 10 µM equal to 67

Per the records, this compound ( N/C(=N\NC(=S)N1CCCCCC1)c1ccc(F)cn1 ) has inhibition of growth at 10 µM equal to 64.4

Per the records, this compound ( Cc1cccc(/C(N)=N/NC(=S)N2CCCCC2)n1 ) has inhibition of growth at 10 µM equal to 47.8

Per the records, this compound ( Cc1ccnc(/C(N)=N/NC(=S)N2CCOCC2)c1 ) has inhibition of growth at 10 µM equal to 62

Per the records, this compound ( Cc1ccnc(/C(N)=N/NC(=S)N2CCCC2)c1 ) has inhibition of growth at 10 µM equal to 71.2

Per the records, this compound ( Cc1ccnc(/C(N)=N/NC(=S)N2CCSCC2)c1 ) has inhibition of growth at 10 µM equal to 60

Per the records, this compound ( Cc1cccc(/C(N)=N/NC(=S)N2CCCCCC2)n1 ) has inhibition of growth at 10 µM equal to 45.8

Per the records, this compound ( N/C(=N\NC(=S)N1CCN(c2ccccn2)CC1)c1ccccn1 ) has inhibition of growth at 10 µM equal to 69

Per the records, this compound ( Cc1ccnc(/C(N)=N/NC(=S)N2CCCCC2)c1 ) has inhibition of growth at 10 µM equal to 39.7

Per the records, this compound ( N/C(=N\NC(=S)N1CCCC1)c1ccccn1 ) has inhibition of growth at 10 µM equal to 77.2

Per the records, this compound ( Cc1cccc(/C(N)=N/NC(=S)N2CCN(c3ccccn3)CC2)n1 ) has inhibition of growth at 10 µM equal to 43

Per the records, this compound ( N/C(=N\NC(=S)N1CCOCC1)c1ccc(F)cn1 ) has inhibition of growth at 10 µM equal to 66.9

Per the records, this compound ( N/C(=N\NC(=S)N1CCCCC1)c1ccccn1 ) has inhibition of growth at 10 µM equal to 68.1

Per the records, this compound ( N/C(=N\NC(=S)N1CCSCC1)c1ccc(F)cn1 ) has inhibition of growth at 10 µM equal to 61.8

Per the records, this compound ( N/C(=N\NC(=S)N1CCOCC1)c1ccccn1 ) has inhibition of growth at 10 µM equal to 69.4

Per the records, this compound ( Cc1cccc(/C(N)=N/NC(=S)N2CCOCC2)n1 ) has inhibition of growth at 10 µM equal to 68.1
